# targetOfAssay: UniProt O00625
# Sequence (O00625 1-290): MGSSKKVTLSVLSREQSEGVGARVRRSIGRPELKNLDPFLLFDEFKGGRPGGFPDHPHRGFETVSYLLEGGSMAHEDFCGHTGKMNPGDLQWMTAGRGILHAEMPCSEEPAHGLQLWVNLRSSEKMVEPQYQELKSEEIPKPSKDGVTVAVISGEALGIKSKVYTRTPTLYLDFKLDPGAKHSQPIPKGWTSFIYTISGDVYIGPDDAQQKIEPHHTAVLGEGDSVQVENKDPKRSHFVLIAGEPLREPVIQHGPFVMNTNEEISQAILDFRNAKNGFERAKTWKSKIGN
# experimentNotes: fluorescence polarization competition with a pirin FP reporter compound
# conditionNotes: read-out: CCG-257081 (S enantiomer) [drawing 1]
measuredParameter: IC50
Remember to quote the unit after the number.

Dear colleague, I am looking for the recorded IC50 of the following compound: O=C(Nc1ccc(Cl)cc1)[C@@H]1CN(C(=O)c2cc(F)cc(-c3ccncc3)c2)CC(F)(F)C1 [(S) CCG-257081]
8 µM
